system: HBV; assay: Anti-HBV activity in vitro in HepG2.2.15 cells (extracellular HBV DNA by qPCR); format: cell-based, Hepatitis B virus; conditions: Hepatitis B virus; HepG2.2.15 cells; in-house data; read-out: EC50
Listed here are molecules together with their documented EC50.
The reply should be a number in nM, with the unit left off.

Previously resolved entries follow.
COC(=O)C1=C(CN2CC(F)(F)C[C@H]2C(=O)O)NC(c2nc(C)cs2)=N[C@H]1c1ccc(F)cc1Cl    2
CCOC(=O)C1=C(CN2CCOC[C@H]2C(=O)O)NC(c2nccs2)=N[C@H]1c1ccc(F)cc1Br    1.3

Find EC50 (HBV) for the entry "CCOC(=O)C1=C(CN2CCOC[C@H]2C(=O)O)NC(c2nccs2)=N[C@H]1c1cccc(F)c1"
14

Then what about the molecule "COC(=O)C1=C(CN2CC(F)(F)C[C@H]2C(=O)O)NC(c2cc(Cl)cs2)=N[C@H]1c1ccc(F)cc1Cl" ?
25

Then what about the molecule "COC(=O)C1=C(CN2CCOC[C@H]2C(=O)O)NC(c2nccs2)=N[C@H]1c1cccc(F)c1Cl" ?
4.4

Then what about the molecule "CCOC(=O)C1=C(CN2CC(F)(F)CC[C@H]2C(=O)O)NC(c2nccs2)=N[C@H]1c1ccccc1Cl" ?
5.8

Then what about the molecule "CCOC(=O)C1=C(CN2CCOC[C@H]2C(=O)O)NC(c2ncoc2C)=N[C@H]1c1ccc(F)cc1Br" ?
6

====

assay: Metabolic stability study in human microsome; type: in vitro ADME
Listed here are molecules together with their documented Human Hepatic Clearance.
The reply should be a number in mL/min/kg, with the unit left off.

COC(=O)C1=C(CN2CC(F)(F)C[C@H]2C(=O)O)NC(c2ncoc2C)=N[C@H]1c1ccc(F)cc1Cl    0.97
CCOC(=O)C1=C(CN2CCO[C@H](C)[C@H]2C(=O)O)NC(c2nccs2)=N[C@H]1c1ccc(F)c(F)c1    1.95
CCOC(=O)C1=C(CN2CCOC[C@H]2C(=O)O)NC(c2nccs2)=N[C@H]1c1ccc(Cl)c(F)c1    1.77

Which Human Hepatic Clearance value is on record for "CCOC(=O)C1=C(CN2CCOC[C@H]2C(=O)O)NC(c2nccs2)=N[C@H]1c1ccccc1I" ?
4.25

====

assay: Metabolic stability study in human microsome; assay type: in vitro ADME
REPORTED_ENDPOINT: Human Hepatic Clearance

Previously resolved entries follow.
COC(=O)C1=C(CN2CC(F)(F)CC[C@@H]2C(=O)O)NC(c2nccs2)=N[C@H]1c1cccc(F)c1Cl    2.41 mL/min/kg
COC(=O)C1=C(CN2CCOC[C@]2(C)C(=O)O)NC(c2nccs2)=N[C@H]1c1ccc(F)c(F)c1Cl (single isomer, unassigned)    2.18 mL/min/kg
COC(=O)C1=C(CN2CC(F)(F)C[C@H]2C(=O)O)NC(c2cc(C)cs2)=N[C@H]1c1ccc(F)cc1Cl    8.79 mL/min/kg

Proceeding to the next molecule to report its Human Hepatic Clearance.
Which Human Hepatic Clearance value is on record for "CCOC(=O)C1=C(CN2CCOC[C@H]2C(=O)O)NC(c2nccs2)=N[C@H]1c1ccccc1Cl" ?
0 mL/min/kg

====

test system: HBV; assay: Anti-HBV activity in vitro in HepG2.2.15 cells (extracellular HBV DNA by qPCR); format: cell-based, Hepatitis B virus; conditions: Hepatitis B virus; HepG2.2.15 cells; in-house data; read-out: EC50
REPORTED_ENDPOINT: EC50 (nM)
The reply should be a number in nM, with the unit left off.

COC(=O)C1=C(CN2CCOC[C@H]2C(=O)O)NC(c2nc(C)cs2)=N[C@H]1c1ccc(F)cc1Cl    7

Which EC50 value is on record for CCOC(=O)C1=C(CN2CC(F)(F)C[C@H]2C(=O)O)NC(c2nccs2)=NC1c1ccc(F)c(F)c1Cl (stereo in doubt) ?
1

Then what about the compound "CCOC(=O)C1=C(CN2CCOC[C@H]2C(=O)O)NC(c2nccs2)=N[C@H]1c1ccc(F)cc1Cl" ?
2

Then what about the compound "COC(=O)C1=C(CN2CC(F)(F)C[C@H]2C(=O)O)NC(c2nccs2)=N[C@H]1c1ccc(F)c(F)c1Cl" ?
2.1

====

Listed here are compounds together with their documented Human Hepatic Clearance.
assay: Metabolic stability study in human microsome; type: in vitro ADME
The reply should be a number in mL/min/kg, with the unit left off.

Previously resolved entries follow.
COC(=O)C1=C(CN2CC(F)(F)C[C@H]2C(=O)O)NC(c2cc(C)ccn2)=N[C@H]1c1ccc(F)cc1Cl    6.33
COC(=O)C1=C(CN2C[C@H](C(=O)O)CC(F)(F)C2)NC(c2nc(C)cs2)=N[C@H]1c1ccc(F)cc1Cl    4.27
CCOC(=O)C1=C(CN2CCOC[C@H]2C(=O)O)NC(c2nccs2)=N[C@H]1c1cccc(F)c1F    2.22
CCOC(=O)C1=C(CN2CCOC[C@H]2C(=O)O)NC(c2nccs2)=N[C@H]1c1ccc(Br)c(F)c1    4.03
CCOC(=O)C1=C(CN2CCOC[C@H]2C(=O)O)NC(c2nccs2)=N[C@H]1c1ccc(F)c(F)c1F    4.46
CCOC(=O)C1=C(CN2CCOC[C@H]2C(=O)O)NC(c2nccs2)=N[C@H]1c1ccc(Cl)c(Cl)c1    0

Proceeding to the next compound to report its Human Hepatic Clearance.
Which Human Hepatic Clearance value is on record for "COC(=O)C1=C(CN2CCOC[C@@]2(C)C(=O)O)NC(c2nccs2)=N[C@H]1c1ccc(F)c(F)c1Cl" ?
3.22

====

system: HBV; experiment: Anti-HBV activity in vitro in HepG2.2.15 cells (extracellular HBV DNA by qPCR); type: cell-based, Hepatitis B virus; details: Hepatitis B virus; HepG2.2.15 cells; in-house data; read-out: EC50
pEC50: −log10 of the molar value.
Criterion: pEC50 meeting or surpassing 8. Met: 1.0. Not met: 0.0.

COC(=O)C1=C(CN2CC(F)(F)C[C@H]2C(=O)O)NC(c2ncccc2C)=N[C@H]1c1ccc(F)cc1Cl    0.0
COC(=O)C1=C(CN2CCO[C@H](C)[C@H]2C(=O)O)NC(c2nccs2)=N[C@H]1c1cccc(F)c1Cl    1.0
COC(=O)C1=C(CN2CC(F)(F)CC[C@@H]2C(=O)O)NC(c2nccs2)=N[C@H]1c1cccc(F)c1Cl    0.0
CCOC(=O)C1=C(CN2CC(F)(F)C[C@H]2C(=O)O)NC(c2nccs2)=N[C@H]1c1cccc(F)c1Cl    1.0
CCOC(=O)C1=C(CN2CCO[C@H](C)[C@H]2C(=O)O)NC(c2nccs2)=N[C@H]1c1cccc(F)c1Cl    1.0
CCOC(=O)C1=C(CN2CCOC[C@H]2C(=O)O)NC(c2nccs2)=N[C@H]1c1cccc(F)c1Cl    1.0
COC(=O)C1=C(CN2CCOC[C@H]2C(=O)O)NC(c2nccs2)=N[C@H]1c1ccccc1Br    1.0

Given the entry "COC(=O)C1=C(CN2CCOC[C@H]2C(=O)O)NC(c2nc(SC)cs2)=N[C@H]1c1ccc(F)cc1Cl" , answer whether its pEC50 meets or surpasses 8.
0.0

====

Listed here are compounds together with their documented solubility thermodynamic.
experiment: Lyophilisation solubility assay (Lysa); assay type: physicochemical; settings: phosphate buffer, pH 6.5, aqueous buffer, thermodynamic from solid
The reply should be a number in µg/mL, with the unit left off.

CCOC(=O)C1=C(CN2CC(F)(F)C[C@H]2C(=O)O)NC(c2nc(C(F)(F)F)cn2C)=N[C@H]1c1ccc(F)cc1Cl    409

Which solubility thermodynamic value is on record for COC(=O)C1=C(CN2CCSCC2C(=O)O)NC(c2nccs2)=N[C@H]1c1ccc(F)cc1Cl (stereo in doubt) ?
584

====

assay: Cytotoxicity (CC50) in HepDE19 cells, CCK-8 cell viability; assay type: cell-based; conditions: human, HepDE19 cells; read-out: CC50
Listed here are compounds together with their documented CC50 at 5 days.

Previously resolved entries follow.
COC(=O)C1=C(CN2CCO[C@H](C)[C@H]2C(=O)O)NC(c2nccs2)=N[C@H]1c1ccc(F)c(F)c1F    > 100 µM
CCOC(=O)C1=C(CN2CCOC[C@H]2C(=O)O)NC(c2nccs2)=N[C@H]1c1ccc(Br)cc1F    30 µM
COC(=O)C1=C(CN2CCO[C@H](C)[C@H]2C(=O)O)NC(c2nccs2)=N[C@H]1c1ccc(F)c(F)c1    > 100 µM

Which CC50 at 5 days value is on record for "CCOC(=O)C1=C(CN2CCOC[C@H]2C(=O)O)NC(c2nccs2)=N[C@H]1c1cccc(F)c1" ?
69 µM

Then what about the compound "COC(=O)C1=C(CN2CC(F)(F)C[C@H]2C(=O)O)NC(c2cc(F)cs2)=N[C@H]1c1ccc(F)cc1Cl" ?
> 100 µM
